target: Adrenergic receptor alpha-2 (Homo sapiens, UniProt P08913+P18825+P18089); experiment: Displacement of [3H]-RX-821002 from human alpha-2 adrenergic receptor in brain prefrontal cortex membrane by liquid scintillation spectrometry; type: cell membranes
reported_property: pKi
Lab note: write the figure by itself, no unit.

Q: Suppose we examine the molecule Cc1ccc(NC(=N)Nc2ccccc2)nc1.Cl ; what pKi value has been reported?
Result: 6.02

Q: Suppose we examine the molecule Cl.N=C(NCCO)Nc1ccc2c(n1)CCCC2 ; what pKi value has been reported?
Result: 5.83

Q: Suppose we examine the molecule Cc1ccc(NC(=N)N)nc1.Cl ; what pKi value has been reported?
Result: 6.03
